Test: yeast display, Sf9 membrane polyspecificity reagent, FACS + sequencing; frameworks hold sequencing errors
OUTCOME MEASURE: polyreactivity (PSR sort gate)

# example entries with known answers
INSERT INTO results (chain_sequence, assay_result) VALUES
  ('QVQLVESGGGLVQAGGSLRLSCAASGSILVNAIGWYRQAPGKEREFVAAISSGGSTKYADSVKGRFTMSRDNATNTDYLLMNSLKPEDTEVYYCAARVVTSRLSGGTTHPFILYYWGQGTQVTVSS', 'high polyreactivity'),
  ('QVQRVESGGGLVQAGGSLRLSCAASGSIFSIYAMGWYRQAPGKETELVAAIDSGTSTTYADSVKGRFTISRDNAKNTVYLEMNSLKPEDTAVYYCAAALYSDVAAVATYGYYCGQGTQVTVSS', 'low polyreactivity'),
  ('QVQLVESGGGLVQAGGSLRLSCAASGIIFGTYAMGWYRQAPGKERELVAVITSGAGRTYYADSVKGRFTISRDNAKNTVYLQMNSLKPEDTAVDYCAARVWYPRYDYWGQGTQVTVSS', 'high polyreactivity'),
  ('QVHLVESGGGLVQAGGSLRLSCASSGFTFRANAMGWYRPAPGKERELVAVITGSGRTYYAHSVKGRFTISRDNAKNSVYLKMNSLKPEDTAVYYCAARAAYRVSSTGYDSWGQGSQVTVSS', 'high polyreactivity');

Turning now to a further sequence:
Q) Which measured polyreactivity (PSR sort gate) value corresponds to QVQLVESGRGLVQAGGSLRLSCAASGSIFYGNTMGWYRQAPGTERELVASITRPGDRTYYADSVKGRFTLSRDNAKNTVDLQMNSLKAEDTAVYYCNAGLVLPPPGACIVYFDQMDYWGQGTQVTVSS ?
A) low polyreactivity
